Can you tell me OD450 for the items I'm about to list?
- TARGET DESC: T1, human NMI (N-myc Interacting protein) (human, UniProt Q13287 1-307, limits assumed)
- T1 construct: Immunogen and ELISA coating antigen; also called hNMI; antigen 1
- T1 sequence (looked up): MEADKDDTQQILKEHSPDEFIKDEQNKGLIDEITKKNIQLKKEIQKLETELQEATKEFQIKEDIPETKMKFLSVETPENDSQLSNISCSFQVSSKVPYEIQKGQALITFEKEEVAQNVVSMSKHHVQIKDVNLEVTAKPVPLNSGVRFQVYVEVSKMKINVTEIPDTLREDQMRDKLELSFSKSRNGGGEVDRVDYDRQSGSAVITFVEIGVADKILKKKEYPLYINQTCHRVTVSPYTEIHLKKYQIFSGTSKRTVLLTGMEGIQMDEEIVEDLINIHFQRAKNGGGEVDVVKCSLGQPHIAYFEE
- PROCEDURE DETAILS: I-ELISA, hNMI coated 1 ug/mL; antibody 4.8828125 ng/mL
One number for each entry, in OD450.

Some binders with known OD450 results, for comparison:
[[record]]
binder = "B-8 (antibody, V domains shown, Rabbit monoclonal antibody; also called B8-1; B-8-biotin (biotin-labelled form)) VH: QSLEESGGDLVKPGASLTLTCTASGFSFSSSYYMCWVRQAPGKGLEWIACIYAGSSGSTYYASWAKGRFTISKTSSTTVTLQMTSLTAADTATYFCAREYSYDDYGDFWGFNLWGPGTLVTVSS VL: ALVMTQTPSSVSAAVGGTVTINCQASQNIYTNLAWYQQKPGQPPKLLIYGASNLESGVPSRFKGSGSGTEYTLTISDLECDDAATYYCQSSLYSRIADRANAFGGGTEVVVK"
assay_readout = "OD450"
unit_string = "OD450"
measurement = 0.143

[[record]]
binder = "94C4 (antibody, V domains shown, Rabbit monoclonal antibody; also called 94C4-1; 94C4-1-biotin (biotin-labelled form)) VH: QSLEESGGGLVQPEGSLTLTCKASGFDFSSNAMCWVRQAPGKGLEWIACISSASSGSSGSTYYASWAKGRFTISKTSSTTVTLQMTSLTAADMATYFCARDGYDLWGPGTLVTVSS VL: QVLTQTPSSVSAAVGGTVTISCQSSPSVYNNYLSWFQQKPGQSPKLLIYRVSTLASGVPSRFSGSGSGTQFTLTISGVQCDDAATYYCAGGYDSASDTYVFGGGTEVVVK"
assay_readout = "OD450"
unit_string = "OD450"
measurement = 0.262

[[record]]
binder = "39B4 (antibody, V domains shown, Rabbit monoclonal antibody; also called 39B4-1; 39B4-1-biotin (biotin-labelled form)) VH: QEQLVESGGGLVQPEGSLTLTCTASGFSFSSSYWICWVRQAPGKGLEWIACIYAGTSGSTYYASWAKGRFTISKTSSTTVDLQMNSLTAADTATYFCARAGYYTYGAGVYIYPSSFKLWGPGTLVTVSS VL: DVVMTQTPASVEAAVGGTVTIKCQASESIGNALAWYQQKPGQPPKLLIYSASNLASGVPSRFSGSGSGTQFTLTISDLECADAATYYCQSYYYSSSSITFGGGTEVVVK"
assay_readout = "OD450"
unit_string = "OD450"
measurement = 0.159


Now take the following binder into account.
-- ask Please report OD450 for the following binder: 240B10-1 (antibody, V domains shown, Rabbit monoclonal antibody; also called 240B10-1-biotin (biotin-labelled form)) VH: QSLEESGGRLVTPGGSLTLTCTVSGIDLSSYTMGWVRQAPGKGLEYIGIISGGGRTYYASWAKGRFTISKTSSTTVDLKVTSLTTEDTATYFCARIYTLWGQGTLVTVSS VL: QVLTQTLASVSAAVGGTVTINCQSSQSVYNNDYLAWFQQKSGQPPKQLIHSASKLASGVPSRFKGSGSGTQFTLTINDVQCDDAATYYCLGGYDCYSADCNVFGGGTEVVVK
-- reply 0.163
